Each recorded value in this set is attributed to paper PMC12136788.

Please respond with reported binding signal for every item in the list.
# assay.target: MSI1 full-length (mouse, UniProt Q61474 1-362)
# Sequence (Q61474 whole entry): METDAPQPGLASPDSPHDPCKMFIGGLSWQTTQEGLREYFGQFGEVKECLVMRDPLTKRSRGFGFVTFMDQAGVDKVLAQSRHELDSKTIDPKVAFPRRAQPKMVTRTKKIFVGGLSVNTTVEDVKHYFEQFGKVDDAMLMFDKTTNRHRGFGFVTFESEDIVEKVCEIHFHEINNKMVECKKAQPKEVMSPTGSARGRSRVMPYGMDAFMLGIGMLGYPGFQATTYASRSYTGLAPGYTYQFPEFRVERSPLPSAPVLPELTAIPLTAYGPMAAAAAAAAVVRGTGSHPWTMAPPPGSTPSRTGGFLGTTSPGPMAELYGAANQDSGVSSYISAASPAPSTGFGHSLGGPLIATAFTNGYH
# method: nsRBNS (natural sequence RNA bind-n-seq); RBNS binding buffer (assumed for nsRBNS): 25 mM Tris pH 7.5, 150 mM KCl, 3 mM MgCl2, 0.01% Triton X-100, 500 ug/ml BSA, 20 U/ml SUPERase-In, 4 C; UNK is unkempt and MSI1 is Musashi-1; names of the RNAs are library labels; protein concentration not given here; high values mean tight binding
The full ranking holds about 5,800 sequences; the median of “enrichment r” is about 0.54, and the highest 2% start at about 16. This excerpt belongs to a sample that is enriched for the highest values.
Give your result in enrichment R as a bare value.

q: State the recorded binding signal for this entry: chr12:50748518:50748596:+|3pUTR|ENSG00000066084|msi1_unk|FALSE|overlapping (ssRNA) RNA: GGGAGUUCUACAGUCCGACGAUCUCAAAUUCAAACUACAGUACUGUGUAAUUAUGUAUAAAGUUUUUUUAUUUAUUUGAAGUUAGACUAGAUAUACGUUUUUAAAUUUAACAUCUGGCUGGACAGUGUUCUAUUAACUCAUUGCAACAGAGGAUUGAGCAUCA
a: 5.2

q: State the recorded binding signal for this entry: chr1:214663888:214664008:+|3pUTR|ENSG00000117724|msi1|FALSE|bound_elsewhere (ssRNA) RNA: GGGAGUUCUACAGUCCGACGAUCAGGAGAAAACAAUUCCUUAGAAGUCUUAAAUAUAUUGUACUCUUUAGAUCUCCCAUGUGUAGGUAUUGAAAAAGUUUGGAAGCACUGAUCACCUGUUAGCAUUGCCAUUCCUCUACUGCACAACAGAGGAUUGAGCAUCA
a: 16.4

q: State the recorded binding signal for this entry: chr13:110149936:110150037:-|3pUTR|ENSG00000187498|msi1|FALSE|unique (ssRNA) RNA: GGGAGUUCUACAGUCCGACGAUCUUCUUGUAUUAUAAUUAAUUUUCUACCCCCAGAGAUAAAUGUUUGUUUAUAUCACUGUCUAGCUGUUUCAAAAUUUAGGUCCCUUGGUCUGUACAAAUAAUAGCAAUGUAAAAAUGGUUUCAACAGAGGAUUGAGCAUCA
a: 30.3

q: State the recorded binding signal for this entry: ENSG00000070961:be:win_5601|3pUTR|ENSG00000070961|bound_else_gene|NA|bound_elsewhere_windowed (ssRNA) RNA: GGGAGUUCUACAGUCCGACGAUCGAGGUAGCAUGAUAUGCUGGAAAGCAUAUUAGACUAGGAGUCAAGACCUGGUUUCUAGUCUUGGUUUUGCCAUUAAUGUGCUGCAUGAUCUUGGGAAAAUCAUUUACCCUAAAUAAGGGUCAACAGAGGAUUGAGCAUCA
a: 0.263

q: State the recorded binding signal for this entry: chr11:10770493:10770605:+|CDS|ENSG00000198730|unk|FALSE|unique (ssRNA) RNA: GGGAGUUCUACAGUCCGACGAUCACAUGUGGCACCCAGUGAUACAGUUCUUAUGUUUAAUGUGGCCUUGGUCCUGCAAAGAUUAGCUACCUCUGUCCUGAAAGAUGAAAAAAGUAAUCUGAAGGAAGUACUUAAUGCUGUGAACAACAGAGGAUUGAGCAUCA
a: 0.659

q: State the recorded binding signal for this entry: ENSG00000070961:be:win_301|CDS|ENSG00000070961|bound_else_gene|NA|bound_elsewhere_windowed (ssRNA) RNA: GGGAGUUCUACAGUCCGACGAUCUUAGUAUGGGAAGCAUUACAAGAUGUCACUUUAAUUAUAUUAGAAAUUGCAGCCAUAGUAUCAUUGGGCCUUUCUUUUUAUCAGCCUCCAGAAGGGGAUAAUGCACUUUGUGGAGAAGUUCAACAGAGGAUUGAGCAUCA
a: 9.77

q: State the recorded binding signal for this entry: chr12:89642165:89642281:-|CDS|ENSG00000070961|unk|FALSE|bound_elsewhere (ssRNA) RNA: GGGAGUUCUACAGUCCGACGAUCGCCAAAAACCUUUCUUCAAUUAGUAUGGGAAGCAUUACAAGAUGUCACUUUAAUUAUAUUAGAAAUUGCAGCCAUAGUAUCAUUGGGCCUUUCUUUUUAUCAGCCUCCAGAAGGGGAUAACAACAGAGGAUUGAGCAUCA
a: 9.09

q: State the recorded binding signal for this entry: chr9:74692981:74693082:+|3pUTR|ENSG00000198963|unk|FALSE|unique (ssRNA) RNA: GGGAGUUCUACAGUCCGACGAUCUUUUAUAUUACUUUAGAAUGUAAUAGGUUUUUGUCCUUAUUUUAUGUCCUGUAAAUUAUUAGUUCAAUACUGUUAGCAUUCCCGGAUAAUGCACACAUGAUUUCUGAAUGUUUUCUGUAACAACAGAGGAUUGAGCAUCA
a: 2.02

q: State the recorded binding signal for this entry: ENSG00000070961:be:win_251|CDS|ENSG00000070961|bound_else_gene|NA|bound_elsewhere_windowed (ssRNA) RNA: GGGAGUUCUACAGUCCGACGAUCUGUUUGGAAAGAAUUUUAUACCUCCUAAAAAGCCAAAAACCUUUCUUCAAUUAGUAUGGGAAGCAUUACAAGAUGUCACUUUAAUUAUAUUAGAAAUUGCAGCCAUAGUAUCAUUGGGCCCAACAGAGGAUUGAGCAUCA
a: 17.2

q: State the recorded binding signal for this entry: ENSG00000107863:be:win_3301|CDS|ENSG00000107863|bound_else_gene|NA|bound_elsewhere_windowed (ssRNA) RNA: GGGAGUUCUACAGUCCGACGAUCAAGGAAGAGUCGGAAAGGAAACUUCUCAGUAAAGAUGAUACCAGUCCCCCAAAAGACAAAGGCACAUGGAGAAAAGGCAUUCCAAGUAUCAUGAGAAAGACAUUUGAGAAAAAGCCAACUCAACAGAGGAUUGAGCAUCA
a: 0.359

q: State the recorded binding signal for this entry: chr6:57184343:57184440:+|3pUTR|ENSG00000112208|msi1_unk|FALSE|overlapping (ssRNA) RNA: GGGAGUUCUACAGUCCGACGAUCUCUUCAGUUUUGUGAAUAACAAAACUAGCAAUAUUUUAAUUAUCUAUCUAGAGAUUUUUUAGAUUGAAUUCUUGUCUUGUACUAGGAUCUAGCAUAUUUCACUAUUCUGUGGAUGAAUACCAACAGAGGAUUGAGCAUCA
a: 4.43

q: State the recorded binding signal for this entry: ENSG00000136451:be:win_2451|3pUTR|ENSG00000136451|bound_else_gene|NA|bound_elsewhere_windowed (ssRNA) RNA: GGGAGUUCUACAGUCCGACGAUCUUUAAAUUGGAAGACGCUGGAGGCACUGGGAUGUGAUAUGCCCCUCUCUCUCCCAAUCAGAGCCUGUUGAUAUUACAACAGGGACAGAUGUGUUAGUUGCUCACUAGAGUUUAUGUCUUACAACAGAGGAUUGAGCAUCA
a: 1.47

q: State the recorded binding signal for this entry: ENSG00000136451:be:win_2501|3pUTR|ENSG00000136451|bound_else_gene|NA|bound_elsewhere_windowed (ssRNA) RNA: GGGAGUUCUACAGUCCGACGAUCUCCCAAUCAGAGCCUGUUGAUAUUACAACAGGGACAGAUGUGUUAGUUGCUCACUAGAGUUUAUGUCUUAUAUUAAAUUGUAUACAGUUUUUAUUCUAACCACUAACUAGGUAGUGUAUGCAACAGAGGAUUGAGCAUCA
a: 25.2
